protocol details: Cmax in dog at 5 mg/kg, po
Type: ADME, organism-based, Canis lupus familiaris
Parameters: dose 5 mg/kg, route oral
stated conditions: in vivo
quantity measured: Cmax (ng/mL)

>  <chem smiles>
CC(C)CC[C@@]1(C)C(=O)C(C2=NS(=O)(=O)c3cc(NS(C)(=O)=O)ccc3N2)=C(O)c2ccccc21

>  <numeric result>
1940

$$$$

---

protocol details: Cmax in HCV 1b strain N infected chimpanzee at 30 mg/kg, po BID for 14 days measured after 2 hrs of postdose
Type: ADME, organism-based, Pan troglodytes
Design: dose 30 mg/kg, route oral
stated conditions: in vivo

>  <chem smiles>
CC(C)CC[C@@]1(C)C(=O)C(C2=NS(=O)(=O)c3cc(NS(C)(=O)=O)ccc3N2)=C(O)c2ccccc21

>  <Cmax, ng/mL>
8590

$$$$
